- assayTarget: AhR (Homo sapiens, UniProt P35869)
- Sequence (P35869 11-848): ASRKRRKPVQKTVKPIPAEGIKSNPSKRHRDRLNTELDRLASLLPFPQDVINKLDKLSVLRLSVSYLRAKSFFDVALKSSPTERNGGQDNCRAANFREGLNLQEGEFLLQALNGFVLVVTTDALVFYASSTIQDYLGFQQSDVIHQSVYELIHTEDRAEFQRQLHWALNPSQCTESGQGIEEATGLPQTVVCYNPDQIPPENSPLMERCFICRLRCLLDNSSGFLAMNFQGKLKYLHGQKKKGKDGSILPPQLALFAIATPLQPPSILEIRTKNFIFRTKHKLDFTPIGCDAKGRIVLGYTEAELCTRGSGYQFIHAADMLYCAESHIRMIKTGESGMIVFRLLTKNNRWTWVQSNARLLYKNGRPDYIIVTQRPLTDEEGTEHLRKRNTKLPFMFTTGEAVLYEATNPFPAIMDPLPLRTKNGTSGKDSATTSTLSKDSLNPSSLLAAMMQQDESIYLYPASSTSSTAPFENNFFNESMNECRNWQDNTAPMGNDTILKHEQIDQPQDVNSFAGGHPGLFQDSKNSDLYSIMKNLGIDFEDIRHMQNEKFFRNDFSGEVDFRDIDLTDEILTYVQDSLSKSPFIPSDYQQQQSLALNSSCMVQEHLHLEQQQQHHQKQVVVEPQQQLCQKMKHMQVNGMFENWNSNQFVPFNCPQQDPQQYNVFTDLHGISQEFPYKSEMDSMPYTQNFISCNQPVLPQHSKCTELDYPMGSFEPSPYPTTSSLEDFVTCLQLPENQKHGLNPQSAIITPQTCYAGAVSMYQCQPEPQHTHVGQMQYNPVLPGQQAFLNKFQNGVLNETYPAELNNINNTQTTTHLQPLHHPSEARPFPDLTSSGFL
- measurementDescription: In Vitro Assay 3: XRE-luciferase reporter assay, agonism in human cell line (HepG2)
- Assay type: cell-based
- Design: endogenous in cells; host or cells: HepG2
- conditionNotes: number of the cell; HepG2, tryptophan free medium, 6 hours, no agonist; read-out: Assay 3: AhR-Luc Human Agonism (EC50)
testReadout: EC50

- compound: "OCC1CCN(c2cc(-c3ccc(Cl)c(O)c3)nc(-c3cccnc3)n2)CC1 [Example 273]"
  assayTarget: "AhR (Homo sapiens, UniProt P35869)"
  EC50: "> 30 µM"
- compound: "OCC1CCN(c2cc(-c3ccc(N4CCOCC4)cc3)nc(-c3cccnc3)n2)CC1 [Example 268]"
  assayTarget: "AhR (Homo sapiens, UniProt P35869)"
  EC50: "> 30 µM"
- compound: "Cc1ccc(-c2cc(N3CCC(CO)CC3)nc(-c3cccnc3)n2)cc1 [Example 229]"
  assayTarget: "AhR (Homo sapiens, UniProt P35869)"
  EC50: "> 30 µM"
- compound: "CC(=O)N1CCC(CNc2cc(-c3ccc(Cl)cc3)nc(-c3cccnc3)n2)CC1 [Example 154]"
  assayTarget: "AhR (Homo sapiens, UniProt P35869)"
  EC50: "> 30 µM"
- compound: "OCC1CN(c2cc(-c3ccc(Cl)cc3)nc(-c3cccnc3)n2)CC1O (stereo not drawn) [Example 236]"
  assayTarget: "AhR (Homo sapiens, UniProt P35869)"
  EC50: "0.0401 µM"

Give one value of EC50 per listed compound.
1. CN1CCN(c2cc(-c3ccc(Cl)cc3)nc(-c3cccnc3)n2)CC1 [Example 105]
2. O[C@@H]1CN(c2cc(-c3ccc(Cl)cc3)nc(-c3cccnc3)n2)C[C@@H]1F [Example 235]
3. O[C@H]1CCN(c2cc(-c3ccc(C(F)(F)F)cc3)nc(-c3cncc(F)c3)n2)C1 [Example 327]
4. O=C1CN(c2cc(-c3ccc(Cl)cc3)nc(-c3cccnc3)n2)CCN1 [Example 94]
5. O=C(CCO)N1CCN(c2cc(-c3ccc(Cl)cc3)nc(-c3cccnc3)n2)CC1 [Example 352]

Result:
["> 30 µM", "3.56 µM", "1.72 µM", "> 30 µM", "> 30 µM"]

Need EC50 for each of these compounds.
1. OCC1CCN(c2cc(-c3ccc(N4CCOCC4)c(F)c3)nc(-c3cccnc3)n2)CC1 [Example 276]
2. COCC(=O)NC1CCN(c2cc(-c3ccc(Cl)cc3)nc(-c3cccnc3)n2)CC1 [Example 225]
3. CN1CCN(C2CCN(c3cc(-c4ccc(Cl)cc4)nc(-c4cccnc4)n3)CC2)CC1 [Example 92]
4. OCC1CCN(c2cc(-c3ccc(C(F)(F)F)cc3)nc(-c3cccnc3)n2)CC1 [Example 226]
5. OC[C@@H]1CCN(c2cc(-c3ccc(C(F)(F)F)cc3)nc(-c3cccnc3)n2)C[C@H]1O [Example 262]

Result:
> 30 µM
> 30 µM
> 30 µM
> 30 µM
> 30 µM

Report EC50 for each item below.
1. C[C@@H](O)[C@@H](C)Nc1cc(-c2ccc(Cl)cc2)nc(-c2cccnc2)n1 [Example 144]
2. OCC1CCN(c2cc(-c3ccc(OC4CCCCO4)cc3)nc(-c3cccnc3)n2)CC1 (stereo not drawn) [Example 278]
3. O=S(=O)(CCO)N1CCN(c2cc(-c3ccc(Cl)cc3)nc(-c3cccnc3)n2)CC1 [Example 239]
4. CS(=O)(=O)N1CCN(c2cc(-c3ccc(Cl)cc3)nc(-c3cccnc3)n2)CC1 [Example 107]

Result:
["0.0559 µM", "> 30 µM", "> 30 µM", "> 30 µM"]

---

- assayTarget: AhR (Homo sapiens)
- measurementDescription: In Vitro Assay 3: XRE-luciferase reporter assay, agonism in human cell line (HepG2)
- Assay type: cell-based
- Set-up: endogenous in cells; host or cells: HepG2
- conditionNotes: number of the cell; HepG2, tryptophan free medium, 6 hours, no agonist; read-out: Assay 3: AhR-Luc Human Agonism (EC50)
Answer each item with its documented EC50.

- compound: "Cc1cccc(N2CCN(c3cc(-c4ccc(Cl)cc4)nc(-c4cccnc4)n3)CC2)c1C"
  assayValue: "1.58 µM"
- compound: "O[C@H]1CON(c2cc(-c3ccc(C(F)(F)F)cc3)nc(-c3cccnc3)n2)C1"
  assayValue: "> 30 µM"
- compound: "O[C@H]1CCN(c2cc(-c3ccc(Cl)cc3)nc(-c3cccnc3)n2)C1"
  assayValue: "> 30 µM"
- compound: "OC[C@H]1CCN(c2cc(-c3ccc(C(F)(F)F)cc3)nc(-c3cccnc3)n2)C[C@@H]1O"
  assayValue: "> 30 µM"

Shift focus to the following entry.
For CC(=O)NC1CCN(c2cc(-c3ccc(Cl)cc3)nc(-c3cccnc3)n2)C1 (centres unmarked) the compound record lists EC50 as > 30 µM
